Target: human ACC2 (Homo sapiens (Human), UniProt O00763)
Sequence (O00763 129-2458): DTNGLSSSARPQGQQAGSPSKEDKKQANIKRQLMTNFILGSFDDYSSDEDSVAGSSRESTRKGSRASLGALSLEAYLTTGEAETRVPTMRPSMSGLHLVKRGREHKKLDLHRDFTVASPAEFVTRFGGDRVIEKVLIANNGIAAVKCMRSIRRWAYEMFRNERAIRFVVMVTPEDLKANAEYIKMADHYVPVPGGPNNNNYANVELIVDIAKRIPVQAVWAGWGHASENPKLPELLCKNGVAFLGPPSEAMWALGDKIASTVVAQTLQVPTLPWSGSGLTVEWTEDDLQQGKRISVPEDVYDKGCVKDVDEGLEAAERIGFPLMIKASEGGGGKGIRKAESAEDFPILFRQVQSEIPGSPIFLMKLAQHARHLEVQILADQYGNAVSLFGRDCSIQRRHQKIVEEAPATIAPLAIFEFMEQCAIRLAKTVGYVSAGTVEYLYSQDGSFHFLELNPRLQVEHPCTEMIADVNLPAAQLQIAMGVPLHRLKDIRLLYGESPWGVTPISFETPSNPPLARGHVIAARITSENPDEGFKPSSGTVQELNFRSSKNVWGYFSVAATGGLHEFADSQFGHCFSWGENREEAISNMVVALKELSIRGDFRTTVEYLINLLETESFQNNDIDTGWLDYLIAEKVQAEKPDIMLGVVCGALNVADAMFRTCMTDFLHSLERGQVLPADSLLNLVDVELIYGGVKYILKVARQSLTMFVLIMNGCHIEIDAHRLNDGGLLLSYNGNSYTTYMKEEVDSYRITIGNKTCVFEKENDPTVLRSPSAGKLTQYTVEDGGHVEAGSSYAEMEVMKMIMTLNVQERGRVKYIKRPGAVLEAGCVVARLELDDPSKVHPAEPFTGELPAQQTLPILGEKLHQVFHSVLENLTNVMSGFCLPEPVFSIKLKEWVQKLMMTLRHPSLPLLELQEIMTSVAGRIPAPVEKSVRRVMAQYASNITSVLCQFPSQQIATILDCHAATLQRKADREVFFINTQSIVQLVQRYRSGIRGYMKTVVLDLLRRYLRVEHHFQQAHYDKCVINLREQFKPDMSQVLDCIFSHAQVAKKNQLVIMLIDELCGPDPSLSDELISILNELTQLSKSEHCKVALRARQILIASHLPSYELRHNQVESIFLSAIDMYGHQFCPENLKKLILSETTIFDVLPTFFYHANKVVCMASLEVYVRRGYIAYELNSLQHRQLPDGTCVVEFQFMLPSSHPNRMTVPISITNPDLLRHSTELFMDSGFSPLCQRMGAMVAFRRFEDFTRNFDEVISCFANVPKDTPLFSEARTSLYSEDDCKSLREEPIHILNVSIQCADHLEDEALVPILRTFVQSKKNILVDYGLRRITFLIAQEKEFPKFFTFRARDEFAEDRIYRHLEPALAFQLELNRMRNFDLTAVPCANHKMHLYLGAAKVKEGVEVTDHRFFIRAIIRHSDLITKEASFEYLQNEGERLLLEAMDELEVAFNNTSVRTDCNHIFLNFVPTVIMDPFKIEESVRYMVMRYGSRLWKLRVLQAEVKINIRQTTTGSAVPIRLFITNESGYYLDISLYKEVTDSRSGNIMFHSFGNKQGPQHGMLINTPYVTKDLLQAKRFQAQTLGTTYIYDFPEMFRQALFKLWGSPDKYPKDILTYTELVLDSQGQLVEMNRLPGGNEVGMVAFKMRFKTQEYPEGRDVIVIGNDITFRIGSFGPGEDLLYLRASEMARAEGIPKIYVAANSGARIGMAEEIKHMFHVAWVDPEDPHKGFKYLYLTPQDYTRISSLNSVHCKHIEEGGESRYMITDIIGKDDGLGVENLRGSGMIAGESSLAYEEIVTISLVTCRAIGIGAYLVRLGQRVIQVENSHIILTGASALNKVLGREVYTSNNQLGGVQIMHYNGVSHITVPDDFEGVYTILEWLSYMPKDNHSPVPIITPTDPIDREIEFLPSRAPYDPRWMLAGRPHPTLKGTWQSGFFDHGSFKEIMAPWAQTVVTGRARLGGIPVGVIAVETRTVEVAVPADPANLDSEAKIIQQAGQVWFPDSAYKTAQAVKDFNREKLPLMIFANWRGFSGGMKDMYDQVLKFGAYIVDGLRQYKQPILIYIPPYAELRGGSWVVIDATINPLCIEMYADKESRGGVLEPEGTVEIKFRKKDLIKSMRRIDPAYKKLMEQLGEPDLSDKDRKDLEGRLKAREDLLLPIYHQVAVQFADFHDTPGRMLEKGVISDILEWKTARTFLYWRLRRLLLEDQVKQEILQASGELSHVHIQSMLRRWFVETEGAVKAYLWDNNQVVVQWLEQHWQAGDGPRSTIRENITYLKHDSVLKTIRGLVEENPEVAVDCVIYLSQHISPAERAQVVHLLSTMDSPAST
Assay: ACC2 assay, spectrophotometric 384 well assay (NADH-linked, coupled lactate dehydrogenase/pyruvate kinase reaction)
Assay type: biochemical
Conditions: hACC2 construct lacking the 128 N-terminal amino acids; 25° C., 340 nm, 15 minutes
Experimental: Spectrophotometric 384 Well Assay Malonyl CoA formation by acetyl CoA carboxylases is stoichometrically linked to the consumption of ATP. ACC2 activity is measured in a NADH-linked kinetic method measuring ADP generated during the ACC reaction using a coupled lactate dehydrogenase/pyruvate kinase reaction. […] In the following table the activity expressed as IC50 (μM) of compounds according to the invention is presented wherein the IC50 values are determined in the ACC2 assay as described hereinbefore. […]
// returns not satisfied unless IC50 is strictly below 1000 nM, in which case satisfied

- Cc1ncc(C(=O)N[C@@H](C)c2ccc(C3CN(c4ccc(OCC5CC5)cc4)C3)cc2)s1: not satisfied
- Cc1oncc1C(=O)NC(C)Cc1ccc(C2CN(c3ccc(OCC4CC4)cc3)C2)cc1 (centres unmarked): satisfied
- CCCOc1ccc(N2CC(c3ccc(CC(C)NC(C)=O)cc3)C2)cn1 (centres unmarked): satisfied
- C[C@H](NC(=O)c1ccns1)c1ccc(C2CN(c3ccc(OCC4CC4)cc3)C2)cc1: not satisfied
- C[C@H](NC(=O)C1(C#N)CC1)c1ccc(C2CN(c3ccc(OCC4CC4)cc3)C2)cc1: not satisfied
- CC(=O)NC(C)CCc1ccc(C2CN(c3ncc4nc(-c5ccccc5)oc4n3)C2)cc1 (centres unmarked): satisfied
- CC(=O)NC(C)Cc1ccc(C2CN(c3ccc4c(c3)OCCO4)C2)cc1 (centres unmarked): satisfied
- C[C@H](NC(=O)C(C)(C)F)c1ccc(C2CN(c3ccc(OCC4CC4)cc3)C2)cc1: not satisfied

Please look at the following compound next.
Does "CC(=O)N[C@@H](C)c1ccc(C2CN(c3nc(N(C)C)ncc3F)C2)cc1" have IC50 strictly under 1000 nM?
not satisfied
